Value source: patent US20120172386A1

measured_endpoint: melting point

Answered cases to consult:
O=C(Nc1cccc(C(F)(F)F)c1)c1cccc2cc(Oc3cc(CCl)ncn3)ccc12 | 178 to 181 °C
Nc1nc(Cl)cc(Oc2ccc3c(C(=O)Nc4cccc(C(F)(F)F)c4)cccc3c2)n1 | 234 to 236 °C
NC(=O)c1cc(Oc2ccc3c(C(=O)Nc4cccc(C(F)(F)F)c4)cccc3c2)ccn1 | 117 to 120 °C

I'd like to know its melting point. The compound in question is `Nc1cc(Oc2ccc3c(C(=O)Nc4cccc(C(F)(F)F)c4)cccc3c2)ncn1`
243 to 244 °C

---

Observed IC50 values for UniProt P35968 are listed in what follows.
Sequence (P35968 20-1356, species assumed): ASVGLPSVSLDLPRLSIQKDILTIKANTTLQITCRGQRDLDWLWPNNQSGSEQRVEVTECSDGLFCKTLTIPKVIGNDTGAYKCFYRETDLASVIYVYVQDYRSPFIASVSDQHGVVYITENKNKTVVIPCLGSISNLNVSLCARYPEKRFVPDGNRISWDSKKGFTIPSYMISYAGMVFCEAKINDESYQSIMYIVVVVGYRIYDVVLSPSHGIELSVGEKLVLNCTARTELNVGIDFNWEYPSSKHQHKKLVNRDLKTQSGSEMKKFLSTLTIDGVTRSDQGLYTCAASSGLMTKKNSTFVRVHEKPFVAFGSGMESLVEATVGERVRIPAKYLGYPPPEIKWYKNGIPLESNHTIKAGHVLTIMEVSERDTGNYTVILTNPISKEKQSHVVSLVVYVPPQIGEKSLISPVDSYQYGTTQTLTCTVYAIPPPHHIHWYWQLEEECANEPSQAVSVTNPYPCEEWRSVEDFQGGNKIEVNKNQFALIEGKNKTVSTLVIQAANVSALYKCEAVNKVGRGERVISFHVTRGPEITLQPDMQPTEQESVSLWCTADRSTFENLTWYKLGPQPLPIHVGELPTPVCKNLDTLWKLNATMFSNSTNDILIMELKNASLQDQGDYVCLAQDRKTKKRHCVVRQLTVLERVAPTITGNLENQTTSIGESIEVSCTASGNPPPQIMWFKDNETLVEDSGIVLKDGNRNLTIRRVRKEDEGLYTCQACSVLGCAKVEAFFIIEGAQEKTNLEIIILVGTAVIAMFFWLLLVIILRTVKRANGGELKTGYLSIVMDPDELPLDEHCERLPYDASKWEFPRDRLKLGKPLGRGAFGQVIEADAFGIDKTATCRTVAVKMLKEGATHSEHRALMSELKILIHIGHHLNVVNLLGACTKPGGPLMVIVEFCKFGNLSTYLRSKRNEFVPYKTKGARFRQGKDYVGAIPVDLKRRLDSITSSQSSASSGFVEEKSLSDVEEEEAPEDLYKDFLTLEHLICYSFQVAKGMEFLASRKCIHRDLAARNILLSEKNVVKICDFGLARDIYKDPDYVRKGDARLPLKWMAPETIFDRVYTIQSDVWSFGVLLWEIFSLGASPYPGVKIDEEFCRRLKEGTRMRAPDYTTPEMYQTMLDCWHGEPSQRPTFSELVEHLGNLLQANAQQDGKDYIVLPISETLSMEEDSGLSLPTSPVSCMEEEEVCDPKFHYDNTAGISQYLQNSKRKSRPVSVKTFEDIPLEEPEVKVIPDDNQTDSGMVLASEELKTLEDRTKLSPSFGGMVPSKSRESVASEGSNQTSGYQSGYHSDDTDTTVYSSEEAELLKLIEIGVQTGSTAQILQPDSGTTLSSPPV
Give bare numbers, in nM.

Answered cases to consult:
Nc1nccc(Oc2ccc3c(c2)OCCN3C(=O)Nc2ccc(Cl)c(C(F)(F)F)c2)n1 [12b)] | 10
CC(=O)Nc1nccc(Oc2ccc3c(c2)OCCN3C(=O)Nc2ccc(C)c(C(F)(F)F)c2)n1 [Example 20] | 24
COC(=O)Nc1nccc(Oc2ccc3c(c2)OCCN3C(=O)Nc2ccc(C)c(C(F)(F)F)c2)n1 [Example 21] | 19
Nc1nccc(Oc2ccc3c(C(=O)Nc4ccc(C(F)(F)F)cc4)cccc3c2)n1 [17a)] | 19
CC(=O)Nc1nccc(Oc2ccc3c(C(=O)Nc4cccc(C(F)(F)F)c4)cccc3c2)n1 [Example 18] | 21

Provide IC50 for all items below, preserving their order.
1. Cc1ccc(NC(=O)N2CCOc3cc(Oc4ccnc(N)n4)ccc32)cc1C(F)(F)F [12f)]
2. Nc1nccc(Oc2ccc3c(c2)OCCN3C(=O)Nc2ccc(C(F)(F)F)c(C(F)(F)F)c2)n1 [12a)]
3. Nc1nccc(Oc2ccc3c(c2)OCCN3C(=O)Nc2ccc(F)c(C(F)(F)F)c2)n1 [12d)]
4. CC(C)(C)c1ccc(NC(=O)c2cccc3cc(Oc4ccnc(N)n4)ccc23)cc1 [17b)]

17
52
73
54

---

For each entry below, report its melting point value.

Below are worked cases with known answers.
CNCc1cc(Oc2ccc3c(C(=O)Nc4cccc(C(F)(F)F)c4)cccc3c2)ncn1 | 141 to 143 °C
CNc1cc(Oc2ccc3c(C(=O)Nc4ccc(F)c(C(F)(F)F)c4)cncc3c2)ncn1 | 255 to 257 °C
CNc1cc(Oc2ccc3c(c2)OCCN3C(=O)Nc2ccc(C)c(C(F)(F)F)c2)ncn1 | 180 to 182 °C
Nc1cc(Sc2ccc3c(C(=O)Nc4cccc(C(F)(F)F)c4)cccc3c2)ncn1 | 205 °C
COC(=O)Nc1cc(Oc2ccc3c(C(=O)Nc4cccc(C(F)(F)F)c4)cccc3c2)ccn1 | 230 to 232 °C
N#Cc1cc(Oc2ccc3c(C(=O)Nc4cccc(C(F)(F)F)c4)cccc3c2)ncn1 | 167 °C
Nc1cc(Sc2ccc3c(C(=O)Nc4cccc(OC(F)(F)F)c4)cccc3c2)ncn1 | 197 to 199 °C
Nc1cc(Oc2ccc3c(C(=O)Nc4cccc(C(F)(F)F)c4)cccc3c2)ccn1 | 222 to 224 °C
CC(C)c1ccc(-n2nc(C(C)(C)C)cc2NC(=O)c2cncc3cc(Oc4cc(N)ncn4)ccc23)cc1 | 131 to 133 °C
CC(C)(C)c1cc(NC(=O)c2cncc3cc(Oc4cc(N)ncn4)ccc23)n(-c2ccc(F)cc2)n1 | 124 to 126 °C

I'm hoping you can list melting point for every compound here, please.
1. Nc1nccc(Oc2ccc3c(c2)OCCN3C(=O)Nc2cccc(C(F)(F)F)c2)n1
2. CN(C)Cc1cc(Oc2ccc3c(C(=O)Nc4cccc(C(F)(F)F)c4)cccc3c2)ncn1
3. Nc1cc(Oc2ccc3c(C(=O)Nc4ccc(F)c(C(F)(F)F)c4)cccc3c2)ncn1
4. CNc1cc(Oc2ccc3c(C(=O)Nc4cccc(C(F)(F)F)c4)cncc3c2)ncn1
5. CNc1cc(Oc2ccc3c(c2)OCCN3C(=O)Nc2cccc(C(F)(F)F)c2)ncn1

1. 161 to 163 °C
2. 180 to 181 °C
3. 224 to 225 °C
4. 205 to 208 °C
5. 180 °C

Dear reader, for each entry below, please note its melting point.
1. Nc1cc(Sc2ccc3c(C(=O)Nc4ccc(F)c(C(F)(F)F)c4)cccc3c2)ncn1
2. CC(=O)Nc1nccc(Oc2ccc3c(C(=O)Nc4cccc(C(F)(F)F)c4)cccc3c2)n1

221 °C
216 to 217 °C
